Target: Factor Xa (human) (Homo sapiens (Human))
Test: Enzyme assay, inhibition constant for factor Xa (chromogenic substrate, Dixon method)
Format: biochemical
Settings: read-out: Ki FXa
Reported Property: pKi
Value format note: pKi is -log10 of concentration (mol/L); just state the number.

## Input Fill in the blank: the reported pKi of N=C(N)c1ccc(CNC(=O)[C@@H]2Cc3cccc(c3)CNC(=O)Cc3ccc(cc3)CC(=O)NCc3cccc(c3)C[C@@H](NS(=O)(=O)Cc3ccccc3)C(=O)N2)cc1 is ____.
## Output 6.82

---

Target: Factor Xa (human) (Homo sapiens (Human), UniProt P00742)
Sequence (P00742 235-488): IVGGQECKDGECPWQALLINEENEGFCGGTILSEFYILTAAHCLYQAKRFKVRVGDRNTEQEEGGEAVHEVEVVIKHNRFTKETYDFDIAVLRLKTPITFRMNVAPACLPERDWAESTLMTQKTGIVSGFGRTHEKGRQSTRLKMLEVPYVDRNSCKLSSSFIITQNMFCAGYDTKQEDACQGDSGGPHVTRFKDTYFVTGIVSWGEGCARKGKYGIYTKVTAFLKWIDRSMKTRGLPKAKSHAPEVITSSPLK
Sequence (P00742 41-179 partner): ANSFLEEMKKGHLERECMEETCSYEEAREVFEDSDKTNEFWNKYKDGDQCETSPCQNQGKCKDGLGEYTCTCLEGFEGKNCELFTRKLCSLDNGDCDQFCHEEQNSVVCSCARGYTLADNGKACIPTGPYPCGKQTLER
Assay: Enzyme assay, inhibition constant for factor Xa (chromogenic substrate, Dixon method)
Format: biochemical
Details: substrate CH3OCO-D-Cha-Gly-Arg-pNA, mean of at least two measurements; read-out: Ki FXa
Lab note: anything with Ki below 2000 nM is marked y; values at 2000 nM or higher are marked n.

N=C(N)c1ccc(CNC(=O)[C@@H]2Cc3cccc(c3)CNC(=O)CN3CCN(CC3)CC(=O)NCc3cccc(c3)C[C@@H](NS(=O)(=O)Cc3ccccc3)C(=O)N2)cc1    y
N=C(N)c1ccc(CNC(=O)[C@@H]2Cc3cn(nn3)Cc3ccc(cc3)Cn3cc(nn3)C[C@@H](NS(=O)(=O)Cc3ccccc3)C(=O)N2)cc1    y
N=C(N)c1ccc(CNC(=O)[C@@H]2CCCCNC(=O)c3cccc(c3)C(=O)NCCCC[C@@H](NS(=O)(=O)Cc3ccccc3)C(=O)N2)cc1    y
N=C(N)c1ccc(CNC(=O)[C@@H]2Cc3ccc(cc3)CNC(=O)CN3CCN(CC3)CC(=O)NCc3ccc(cc3)C[C@@H](NS(=O)(=O)Cc3ccccc3)C(=O)N2)cc1    n
N=C(N)c1ccc(CNC(=O)[C@@H]2Cc3cccc(c3)CNC(=O)Cc3ccccc3CC(=O)NCc3cccc(c3)C[C@@H](NS(=O)(=O)Cc3ccccc3)C(=O)N2)cc1    y

Now examine the next entry.
## Input Given N=C(N)c1ccc(CNC(=O)[C@@H]2Cc3cn(nn3)Cc3cccc(n3)Cn3cc(nn3)C[C@@H](NS(=O)(=O)Cc3ccccc3)C(=O)N2)cc1 , is recorded Ki strictly lower than 2000 nM?
## Output y

---

Molecular target: plasma kallikrein (Homo sapiens (Human), UniProt P03952)
Sequence (P03952 391-638): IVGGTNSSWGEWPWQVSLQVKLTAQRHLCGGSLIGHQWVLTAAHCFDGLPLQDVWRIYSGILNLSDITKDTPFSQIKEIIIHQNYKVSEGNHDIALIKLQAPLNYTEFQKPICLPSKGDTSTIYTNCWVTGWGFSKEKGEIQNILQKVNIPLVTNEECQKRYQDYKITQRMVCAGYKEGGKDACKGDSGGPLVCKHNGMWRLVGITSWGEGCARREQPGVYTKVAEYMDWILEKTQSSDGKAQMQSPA
Sequence (P03952 20-390 partner): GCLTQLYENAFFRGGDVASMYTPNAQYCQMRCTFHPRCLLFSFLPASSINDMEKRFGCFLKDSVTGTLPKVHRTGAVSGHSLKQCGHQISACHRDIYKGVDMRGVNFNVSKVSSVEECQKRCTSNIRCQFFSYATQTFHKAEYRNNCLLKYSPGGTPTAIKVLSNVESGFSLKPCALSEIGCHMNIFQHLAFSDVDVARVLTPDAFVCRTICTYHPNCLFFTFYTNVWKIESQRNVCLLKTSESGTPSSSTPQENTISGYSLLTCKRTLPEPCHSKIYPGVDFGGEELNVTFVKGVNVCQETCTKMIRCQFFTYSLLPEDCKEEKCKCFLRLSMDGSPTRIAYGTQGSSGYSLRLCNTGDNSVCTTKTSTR
Assay: Enzyme assay, inhibition constant for human plasma kallikrein (chromogenic substrate, Dixon method)
Settings: 25° C., Tris HCl buffer pH 8.0, substrate H-D-Pro-Phe-Arg-pNA, mean of at least two measurements; read-out: Ki PK
Method: Reactions were started by addition of 50 μl of enzyme solution. The Ki values are the mean of at least two measurements. Enzymes and substrates used are set out in Table 1 below: […]
pKi for assorted molecules
In textbook form, pKi equals minus log to base ten of the concentration in mol/L.

## Input Name the reported pKi value associated with the molecule N=C(N)c1ccc(CNC(=O)[C@@H]2Cc3ccc(cc3)NC(=O)CN3CCN(CC3)CC(=O)Nc3ccc(cc3)C[C@@H](NS(=O)(=O)Cc3ccccc3)C(=O)N2)cc1
## Output 6.49

## Input # get_value(readout='pKi', item= N=C(N)c1ccc(CNC(=O)[C@@H]2Cc3ccc(cc3)CNC(=O)Cc3ccc(cc3)CC(=O)NCc3ccc(cc3)C[C@@H](NS(=O)(=O)Cc3ccccc3)C(=O)N2)cc1 )
## Output 6.06

## Input Return reported pKi; argument: N=C(N)c1ccc(CNC(=O)[C@@H]2Cc3cn(nn3)Cc3ccc(cc3)Cn3cc(nn3)C[C@@H](NS(=O)(=O)Cc3ccccc3)C(=O)N2)cc1
## Output 7.92

---

Target: plasmin (Homo sapiens (Human), UniProt P00747)
Sequence (P00747 581-810): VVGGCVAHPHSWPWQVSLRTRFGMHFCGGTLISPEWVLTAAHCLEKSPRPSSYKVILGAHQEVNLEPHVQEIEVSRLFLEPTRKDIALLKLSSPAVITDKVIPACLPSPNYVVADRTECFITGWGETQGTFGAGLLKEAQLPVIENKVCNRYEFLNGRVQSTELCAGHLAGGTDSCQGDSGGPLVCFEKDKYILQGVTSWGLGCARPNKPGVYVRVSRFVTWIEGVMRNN
Sequence (P00747 97-580 partner): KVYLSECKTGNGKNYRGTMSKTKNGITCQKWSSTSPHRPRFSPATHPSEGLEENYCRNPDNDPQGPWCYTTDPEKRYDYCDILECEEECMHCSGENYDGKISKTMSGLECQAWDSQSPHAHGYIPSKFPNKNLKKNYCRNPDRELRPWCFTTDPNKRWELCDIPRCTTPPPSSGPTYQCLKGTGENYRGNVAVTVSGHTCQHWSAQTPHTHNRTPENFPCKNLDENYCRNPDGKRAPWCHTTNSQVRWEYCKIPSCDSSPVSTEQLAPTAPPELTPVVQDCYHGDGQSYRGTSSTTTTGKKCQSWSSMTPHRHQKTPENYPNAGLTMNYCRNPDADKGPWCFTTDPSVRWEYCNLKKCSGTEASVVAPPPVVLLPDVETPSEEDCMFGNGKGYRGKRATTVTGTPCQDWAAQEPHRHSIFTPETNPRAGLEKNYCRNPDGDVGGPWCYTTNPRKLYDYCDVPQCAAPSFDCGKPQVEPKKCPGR
Assay: Enzyme assay, inhibition constant for human plasmin (chromogenic substrate, Dixon method)
Assay type: biochemical
Conditions: 25° C., Tris HCl buffer pH 8.0, substrate Tos-Gly-Pro-Lys-pNA, mean of at least two measurements; read-out: Ki h Plasmin
pKi values by entry
pKi here: minus log base 10 of the concentration, concentration in moles per litre.

N=C(N)c1ccc(CNC(=O)[C@@H]2Cc3cn(nn3)Cc3cccc(c3)Cn3cc(nn3)C[C@@H](NS(=O)(=O)Cc3ccccc3)C(=O)N2)cc1    9.11

## Input Record lookup: for plasmin (Homo sapiens (Human), UniProt P00747), what pKi belongs to N=C(N)c1ccc(CNC(=O)[C@@H]2Cc3ccc(cc3)NC(=O)CN3CCN(CC3)CC(=O)Nc3ccc(cc3)C[C@@H](NS(=O)(=O)Cc3ccccc3)C(=O)N2)cc1 ?
## Output 9.17

## Input Find the measured pKi: item N=C(N)c1ccc(CNC(=O)[C@@H]2CCCCNC(=O)c3cccc(c3)C(=O)NCCCC[C@@H](NS(=O)(=O)Cc3ccccc3)C(=O)N2)cc1 , target or system plasmin (Homo sapiens (Human), UniProt P00747).
## Output 7.42

## Input For the record N=C(N)c1ccc(CNC(=O)[C@@H]2Cc3cn(nn3)Cc3cccc(n3)Cn3cc(nn3)C[C@@H](NS(=O)(=O)Cc3ccccc3)C(=O)N2)cc1 , what value of pKi is listed for plasmin (Homo sapiens (Human), UniProt P00747)?
## Output 8.66

## Input Request - read-out pKi | tested on plasmin (Homo sapiens (Human), UniProt P00747) | compound N=C(N)c1ccc(CNC(=O)[C@@H]2Cc3ccc(cc3)OCCCCOc3ccc(cc3)C[C@@H](NS(=O)(=O)Cc3ccccc3)C(=O)N2)cc1
## Output 8.72

## Input API: value(readout= pKi, system= plasmin (Homo sapiens (Human), UniProt P00747), query= N=C(N)c1ccc(CNC(=O)[C@@H]2Cc3cn(nn3)Cc3ccc(cc3)Cn3cc(nn3)C[C@@H](NS(=O)(=O)Cc3ccccc3)C(=O)N2)cc1 )
## Output 8.27

---

pKi data for thrombin (Bos taurus (Bovine), UniProt P00735) follow.
Just so you know, pKi here is -log10 of the concentration in molar units; reply with that number alone.

N=C(N)c1ccc(CNC(=O)[C@@H]2Cc3cccc(c3)CNC(=O)Cc3ccc(cc3)CC(=O)NCc3cccc(c3)C[C@@H](NS(=O)(=O)Cc3ccccc3)C(=O)N2)cc1    7.34
N=C(N)c1ccc(CNC(=O)[C@@H]2Cc3cccc(c3)CNC(=O)CN3CCN(CC3)CC(=O)NCc3cccc(c3)C[C@@H](NS(=O)(=O)Cc3ccccc3)C(=O)N2)cc1    8.04
N=C(N)c1ccc(CNC(=O)[C@@H]2Cc3ccc(cc3)CNC(=O)Cc3ccc(cc3)CC(=O)NCc3ccc(cc3)C[C@@H](NS(=O)(=O)Cc3ccccc3)C(=O)N2)cc1    5.19
N=C(N)c1ccc(CNC(=O)[C@@H]2CCC(=O)NCc3cccc(c3)CNC(=O)CC[C@@H](NS(=O)(=O)Cc3ccccc3)C(=O)N2)cc1    5.69
N=C(N)c1ccc(CNC(=O)[C@@H]2Cc3ccc(cc3)CNC(=O)Cc3cccc(c3)CC(=O)NCc3ccc(cc3)C[C@@H](NS(=O)(=O)Cc3ccccc3)C(=O)N2)cc1    5.52
N=C(N)c1ccc(CNC(=O)[C@@H]2CCCCNC(=O)c3cccc(c3)C(=O)NCCCC[C@@H](NS(=O)(=O)Cc3ccccc3)C(=O)N2)cc1    6.73

We now examine a further compound.
## Input Bench note: what pKi did N=C(N)c1ccc(CNC(=O)[C@@H]2Cc3ccc(cc3)NC(=O)CN3CCN(CC3)CC(=O)Nc3ccc(cc3)C[C@@H](NS(=O)(=O)Cc3ccccc3)C(=O)N2)cc1 show?
## Output 5.08

---

Molecular target: plasma kallikrein (Homo sapiens (Human), UniProt P03952)
Experiment: Enzyme assay, inhibition constant for human plasma kallikrein (chromogenic substrate, Dixon method)
Settings: 25° C., Tris HCl buffer pH 8.0, substrate H-D-Pro-Phe-Arg-pNA, mean of at least two measurements; read-out: Ki PK
Experimental: Reactions were started by addition of 50 μl of enzyme solution. The Ki values are the mean of at least two measurements. Enzymes and substrates used are set out in Table 1 below: […]
Reported Property: log10 of Ki (log10 of the value in nM)
// units: nM (pre-log); metric: Ki; scale: log10

In the examples that follow, each entry is paired with its recorded log10 of Ki.
N=C(N)c1ccc(CNC(=O)[C@@H]2Cc3cccc(c3)CNC(=O)Cc3cccc(c3)CC(=O)NCc3cccc(c3)C[C@@H](NS(=O)(=O)Cc3ccccc3)C(=O)N2)cc1 [Inhibitor 5]    1.24
N=C(N)c1ccc(CNC(=O)[C@@H]2CCCCNC(=O)c3cccc(c3)C(=O)NCCCC[C@@H](NS(=O)(=O)Cc3ccccc3)C(=O)N2)cc1 [Inhibitor 12]    1.26
N=C(N)c1ccc(CNC(=O)[C@@H]2Cc3cn(nn3)Cc3cccc(n3)Cn3cc(nn3)C[C@@H](NS(=O)(=O)Cc3ccccc3)C(=O)N2)cc1 [Inhibitor 2]    1.00
N=C(N)c1ccc(CNC(=O)[C@@H]2CCC(=O)NCc3cccc(c3)CNC(=O)CC[C@@H](NS(=O)(=O)Cc3ccccc3)C(=O)N2)cc1 [Inhibitor 13]    1.40
N=C(N)c1ccc(CNC(=O)[C@@H]2Cc3cn(nn3)Cc3cccc(c3)Cn3cc(nn3)C[C@@H](NS(=O)(=O)Cc3ccccc3)C(=O)N2)cc1 [Inhibitor 1]    0.38

// moving on: another record for log10 of Ki
## Input What log10 of Ki value was documented for this molecule, N=C(N)c1ccc(CNC(=O)[C@@H]2Cc3ccc(cc3)OCCCCOc3ccc(cc3)C[C@@H](NS(=O)(=O)Cc3ccccc3)C(=O)N2)cc1 [Inhibitor 11] ?
## Output 1.53
